# test.target: T1, recombinant human IL-23 (p19/p40) (human, UniProt Q9NPF7 20-189; P29460 23-328)
# T1 sequence (looked up) 1: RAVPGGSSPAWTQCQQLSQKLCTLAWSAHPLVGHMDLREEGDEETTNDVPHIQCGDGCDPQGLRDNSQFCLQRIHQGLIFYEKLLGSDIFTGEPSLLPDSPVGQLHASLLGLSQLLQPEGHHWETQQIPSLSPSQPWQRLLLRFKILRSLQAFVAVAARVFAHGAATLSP
# T1 sequence (looked up) 2: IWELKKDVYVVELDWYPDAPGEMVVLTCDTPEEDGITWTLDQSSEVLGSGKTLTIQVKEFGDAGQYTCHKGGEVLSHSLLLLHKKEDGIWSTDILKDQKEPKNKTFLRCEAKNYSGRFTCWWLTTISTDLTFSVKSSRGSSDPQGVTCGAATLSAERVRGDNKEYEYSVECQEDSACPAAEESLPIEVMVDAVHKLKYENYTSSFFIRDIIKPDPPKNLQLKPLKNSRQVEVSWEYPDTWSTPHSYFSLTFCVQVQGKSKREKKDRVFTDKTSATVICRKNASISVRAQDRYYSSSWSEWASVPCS
# assay.method.text: cell-based or functional assay
Measured IC50, splenocyte assay, 19 pM hIL-23 accompanies every entry in the list below.
Note to self: number, then unit, no commentary.

Prompt: Sample P23IL-121A2-35GS-81G2 (bispecific antibody) EVQLVESGGGLVQAGGSLRLSCAASGSIFNFNYMGWFRQAPGKEREFVAAIRWSGSSTYYADSVKGRFTISRDDAKNTVALQMNSLKPEDTAIYYCALRKGIPYSTSDRVIKGVNDYDYWGQGTQVTVSSGGGGSGGGGSGGGGSGGGGSGGGGSGGGGSGGGGSEVQLVESGGGLVQPGGSLRLSCIASGLPFSTKSMGWFRQAPGKEREFVARISPGGTSRYYGDFVKGRFAISRDNAKNTTWLQMNSLKAEDTAVYYCASGERSTYIGSNYYRTNEYDYWGTGTQVTVSS — what was its IC50, splenocyte assay, 19 pM hIL-23?
Completion: 94 pM

Prompt: Sample P23IL119A3-9GS-81G2 (bispecific antibody) EVQLVESGGGLVQAGGSLRLSCAASGRIFSLPASGNIFNLLTIAWHRQAPGMQRELVATINSGSRTNYADSVKGRFTISRDNAQKTVYLQMNNLKPEDTAVYYCQTSGSGSPNFWGQGTQVTVSSGGGGSGGGSEVQLVESGGGLVQPGGSLRLSCIASGLPFSTKSMGWFRQAPGKEREFVARISPGGTSRYYGDFVKGRFAISRDNAKNTTWLQMNSLKAEDTAVYYCASGERSTYIGSNYYRTNEYDYWGTGTQVTVSS — what was its IC50, splenocyte assay, 19 pM hIL-23?
Completion: 1990 pM

Prompt: Sample P23IL-121A2-9GS-81G2 (bispecific antibody) EVQLVESGGGLVQAGGSLRLSCAASGSIFNFNYMGWFRQAPGKEREFVAAIRWSGSSTYYADSVKGRFTISRDDAKNTVALQMNSLKPEDTAIYYCALRKGIPYSTSDRVIKGVNDYDYWGQGTQVTVSSGGGGSGGGSEVQLVESGGGLVQPGGSLRLSCIASGLPFSTKSMGWFRQAPGKEREFVARISPGGTSRYYGDFVKGRFAISRDNAKNTTWLQMNSLKAEDTAVYYCASGERSTYIGSNYYRTNEYDYWGTGTQVTVSS — what was its IC50, splenocyte assay, 19 pM hIL-23?
Completion: 740 pM

These entries and their values trace back to patent US20110053865A1.
